Molecular target: UniProt:P16257
Sequence (P16257 whole entry, looked up): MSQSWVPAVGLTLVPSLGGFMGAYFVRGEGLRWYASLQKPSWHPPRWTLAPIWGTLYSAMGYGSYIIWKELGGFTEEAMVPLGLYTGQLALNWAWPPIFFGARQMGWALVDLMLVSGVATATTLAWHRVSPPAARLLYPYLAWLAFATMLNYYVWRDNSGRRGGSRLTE
Assay: Displacement of [3H]-PK11195 from peripheral benzodiazepine receptor of rat ovary
Format: tissue-based, Female gonad
pKi: −log10 of the molar value.
REPORTED METRIC: pKi

COMPOUND: CCCN(CCC)C(=O)C(C)c1c(-c2ccc(Cl)cc2)nc2c(Cl)cc(Cl)cn12 (stereo not given)
DATA VALUE: 5.71
--
COMPOUND: O=C(Cc1c(-c2ccc(Cl)cc2)nc2c(Cl)cc(Cl)cn12)N1CCCCC1
DATA VALUE: 7.18
--
COMPOUND: O=C(Cc1c(-c2ccc(Cl)cc2)nc2c(Cl)cc(Cl)cn12)N1CCCC1
DATA VALUE: 6.22
--
COMPOUND: CCCCN(C)C(=O)Cc1c(-c2ccc(Cl)cc2)nc2c(Cl)cc(Cl)cn12
DATA VALUE: 8.61
--
COMPOUND: O=C(Cc1c(-c2ccc(Cl)cc2)nc2c(Cl)cc(Cl)cn12)Nc1ccccc1
DATA VALUE: 7.74

Values were extracted from ChEMBL document CHEMBL1139492.
